TESTED_TARGET: T1, EsCas13d, nuclease-dead (Eubacterium siraeum, UniProt B0MS50, R295A;H300A;R849A;H854A)
T1 sequence: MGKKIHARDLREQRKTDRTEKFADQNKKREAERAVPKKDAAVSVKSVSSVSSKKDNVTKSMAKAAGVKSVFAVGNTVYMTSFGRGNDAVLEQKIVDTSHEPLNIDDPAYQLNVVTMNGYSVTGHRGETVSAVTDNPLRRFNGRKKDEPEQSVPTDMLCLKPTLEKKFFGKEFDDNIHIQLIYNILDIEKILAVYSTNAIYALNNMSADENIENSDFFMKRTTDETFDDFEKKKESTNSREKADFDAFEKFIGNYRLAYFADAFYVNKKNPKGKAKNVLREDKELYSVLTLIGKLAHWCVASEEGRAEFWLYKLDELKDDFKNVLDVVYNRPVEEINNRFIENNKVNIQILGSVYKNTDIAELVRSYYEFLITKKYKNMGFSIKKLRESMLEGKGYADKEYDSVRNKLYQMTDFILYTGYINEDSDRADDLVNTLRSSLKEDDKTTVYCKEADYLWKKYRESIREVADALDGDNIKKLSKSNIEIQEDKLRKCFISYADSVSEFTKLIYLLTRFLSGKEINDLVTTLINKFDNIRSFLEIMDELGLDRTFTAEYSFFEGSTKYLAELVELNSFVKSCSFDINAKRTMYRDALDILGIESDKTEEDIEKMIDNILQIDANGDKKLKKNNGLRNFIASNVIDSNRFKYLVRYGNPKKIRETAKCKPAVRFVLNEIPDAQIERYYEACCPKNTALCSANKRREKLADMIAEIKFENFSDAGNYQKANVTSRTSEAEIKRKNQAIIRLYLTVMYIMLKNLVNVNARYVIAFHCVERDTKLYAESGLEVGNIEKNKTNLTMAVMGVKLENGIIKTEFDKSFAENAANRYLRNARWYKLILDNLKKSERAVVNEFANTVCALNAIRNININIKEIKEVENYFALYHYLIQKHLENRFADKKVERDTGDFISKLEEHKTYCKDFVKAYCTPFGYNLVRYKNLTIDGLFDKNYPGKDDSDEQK
MEASUREMENT_DESCRIPTION: crRNA (strand 1, pre-loaded); Mg2+; 40 mM Tris-HCl pH 7.5, 150 mM NaCl, 6 mM MgCl2, 1 mM DTT, 0.1% Tween-20, 0.2 mg/ml BSA; 25 C; 10 min per concentration, then washed
ASSAY_SETUP: tags: His6-TwinStrep-SUMO cleaved; N-terminal SNAP kept (SNAP-Surface 488); label: 3' end held by stalled T7 RNA polymerase
ENDPOINT: pKd
Answers are plain numbers, as −log10 of the molar value.

Return value of pKd for input target 1 G5C,G12U (mixed) RNA 1: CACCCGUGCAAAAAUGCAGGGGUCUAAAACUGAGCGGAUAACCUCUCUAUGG RNA 2: GGGAAUGGAUCCACAUCUACGAAUUCGUACCAUAGAGAGUUUAUCCCCUCACCGAGAUCGGAAGAGCACACGU , no commentary. 8.06

Source of measurements: paper PMC10786891
